Recorded enrichment values for a group of variants are listed next.
B1: NF2 (merlin) isoform 7, human, full length (507 aa, lacks exons 2-3 = isoform-1 residues 39-121; exon-16 C-terminus), P35240-4 (parent)
chain: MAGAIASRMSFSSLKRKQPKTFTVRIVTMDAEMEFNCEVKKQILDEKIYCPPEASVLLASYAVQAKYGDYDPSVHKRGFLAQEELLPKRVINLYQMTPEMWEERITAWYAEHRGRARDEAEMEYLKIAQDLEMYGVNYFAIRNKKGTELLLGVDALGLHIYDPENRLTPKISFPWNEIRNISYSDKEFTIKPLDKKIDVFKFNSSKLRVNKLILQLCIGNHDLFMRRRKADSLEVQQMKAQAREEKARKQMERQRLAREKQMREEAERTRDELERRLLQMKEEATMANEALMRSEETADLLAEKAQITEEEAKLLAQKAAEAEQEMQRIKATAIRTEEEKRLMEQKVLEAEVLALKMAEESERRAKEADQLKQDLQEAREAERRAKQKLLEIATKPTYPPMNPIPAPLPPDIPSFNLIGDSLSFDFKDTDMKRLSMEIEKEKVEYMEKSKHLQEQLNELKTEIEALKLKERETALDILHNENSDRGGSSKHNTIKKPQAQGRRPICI

Variants of: B1
protocol_notes: reverse yeast two-hybrid deep mutational scan (rY2H-seq): NF2 isoform 7 mutant library as bait mated with wild-type prey strains; selection on medium lacking adenine for non-interacting pairs; NextSeq paired-end sequencing; enrichment vs …
setup_conditions: with KDM1A (lysine-specific histone demethylase 1A; the table's label AOF2 is a gene synonym of KDM1A), O60341; yeast diploids after mating (RBait_S3 x RPrey_S3), 30 °C, selection for reporter genes on NB agar; human tyrosine kinase ABL2 co-expressed as the active kinase …; HIGHER = WEAKER BINDING (the opposite of display enrichments): higher = stronger loss of interaction: reverse Y2H selects yeast in which bait and prey do NOT interact (growth without adenine), so a …; hits-only table; scale: rY2H score; numbering: uniprot, sequence starts at 1

variant: L355P
enrichment: 1.79

variant: K330L
enrichment: 2.59

variant: Y398K
enrichment: 2.43

variant: R89K
enrichment: 1.9
